Biological target: angiotensin-converting enzyme (ACE) (Homo sapiens, UniProt P12821)
Sequence (P12821 30-1306): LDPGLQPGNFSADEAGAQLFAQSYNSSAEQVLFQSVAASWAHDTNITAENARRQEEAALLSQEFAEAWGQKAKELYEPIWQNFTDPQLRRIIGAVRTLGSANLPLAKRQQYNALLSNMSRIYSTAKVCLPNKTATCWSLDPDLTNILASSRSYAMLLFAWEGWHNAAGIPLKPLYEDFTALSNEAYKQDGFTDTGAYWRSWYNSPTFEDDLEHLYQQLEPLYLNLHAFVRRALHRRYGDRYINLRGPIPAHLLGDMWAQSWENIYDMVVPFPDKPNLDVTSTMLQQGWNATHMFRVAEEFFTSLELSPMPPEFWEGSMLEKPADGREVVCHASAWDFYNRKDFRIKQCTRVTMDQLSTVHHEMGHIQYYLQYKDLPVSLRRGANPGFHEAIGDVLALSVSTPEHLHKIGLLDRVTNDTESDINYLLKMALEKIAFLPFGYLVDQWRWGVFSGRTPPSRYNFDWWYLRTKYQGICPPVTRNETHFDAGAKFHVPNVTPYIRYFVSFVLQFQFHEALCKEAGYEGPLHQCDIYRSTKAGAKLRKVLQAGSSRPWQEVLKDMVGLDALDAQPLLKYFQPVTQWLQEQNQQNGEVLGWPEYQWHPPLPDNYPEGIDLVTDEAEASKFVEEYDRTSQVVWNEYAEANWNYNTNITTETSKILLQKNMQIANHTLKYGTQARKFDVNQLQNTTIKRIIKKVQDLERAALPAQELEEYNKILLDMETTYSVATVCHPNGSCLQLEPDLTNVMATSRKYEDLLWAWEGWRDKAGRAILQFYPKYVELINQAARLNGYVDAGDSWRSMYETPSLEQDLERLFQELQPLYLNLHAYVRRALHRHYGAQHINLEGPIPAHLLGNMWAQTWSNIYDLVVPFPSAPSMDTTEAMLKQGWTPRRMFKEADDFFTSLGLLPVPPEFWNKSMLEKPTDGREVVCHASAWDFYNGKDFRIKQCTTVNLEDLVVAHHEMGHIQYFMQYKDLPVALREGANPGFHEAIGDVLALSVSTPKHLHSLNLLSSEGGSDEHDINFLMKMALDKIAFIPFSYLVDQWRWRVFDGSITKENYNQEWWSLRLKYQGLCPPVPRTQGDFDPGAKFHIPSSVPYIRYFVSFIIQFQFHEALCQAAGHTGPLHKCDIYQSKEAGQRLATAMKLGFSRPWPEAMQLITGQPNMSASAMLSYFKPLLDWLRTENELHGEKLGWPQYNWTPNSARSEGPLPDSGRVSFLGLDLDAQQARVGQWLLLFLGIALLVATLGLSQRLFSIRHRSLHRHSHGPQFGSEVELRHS
Experiment: Cellular ACE inhibitory assay in renal HK-2 cells
Format: cell-based
Parameters: endogenous in cells
Conditions: HK-2 cells treated 24 h at 37 °C with P7 0.1–250 μM; ACE activity in cell lysates, fluorescent Abz substrate; mean ± sd of three independent experiments in triplicate
No end group written: not given here.
reported property: IC50 (µM)

{"sequence content": "LTFPGSAED [P7]", "measurement target": "angiotensin-converting enzyme (ACE) (Homo sapiens, UniProt P12821)", "reported property": "IC50", "value unit": "µM", "measured": 79.6}
